This collection of values is drawn from patent US20260285880A1.

A collection of molecules and their measured inhibition at 0.001 µM
# SUBJECT OF TEST: Flpin-293-PDE4B2 cells (Homo sapiens)
# ASSAY PROTOCOL: cell-based
# CONDITIONS USED: read-out: Cell Inhibition % @1 nM, 1 nM, Flpin-293-PDE4B2 cells
Write down the numeric answer in % and omit the unit.

> print(dat)
                                   molecule  unit.abbreviation  recorded.measurement
1  C[C@H]1CN(c2nc3c(c(NC4(CO)CCC4)n2)[S+]([O-])CC3)Cc2ccc(Cl)cc21 (stereo partly shown) [Compound 120]                  %                   4.1
2  O=C1CCCN1c1ccc2c(c1)CCN(c1nc3c(c(NC4(CO)CCC4)n1)[S+]([O-])CC3)C2 (stereo not shown) [Compound 87]                  %                   2.9
3  CO[C@@H]1CCN(c2ccc3c(c2)CCN(c2nc4c(c(NC5(CO)CCC5)n2)[S+]([O-])CC4)C3)C1 (stereo partly shown) [Compound 152]                  %                  16.1
4  [O-][S+]1CCc2nc(N3CCc4c(c(NCCO)nc5cc(Cl)ccc45)C3)nc(NC3(CO)CCC3)c21 (stereo not shown) [Compound 103]                  %                  2.83
5  Nc1nc2cc(Cl)ccc2c2c1CN(c1nc3c(c(NC4(CO)CCC4)n1)[S+]([O-])CC3)CC2 (stereo not shown) [Compound 102]                  %                 -0.08
6  [O-][S+]1CCc2nc(N3CCc4cc(N5CCCC5)ccc4C3)nc(N3CCC[C@H]3CO)c21 (stereo partly shown) [Compound 188]                  %                  8.72

Please turn your attention to the following entry.
Given the entry [O-][S+]1CCc2nc(N3CCc4c(nn5cc(F)ccc45)C3)nc(NC3(CO)CCC3)c21 (stereo not shown) [Compound 32] , report its measured inhibition at 0.001 µM.
23.5

====

# SUBJECT OF TEST: UniProt:Q07343
# CONDITIONS USED: read-out: PDE4B2 IC50; enzyme assay
REPORTED ENDPOINT: pIC50
Note on pIC50: it is the negative log10 of concentration, concentration in mol/L.

Fill blank: measured pIC50 of the compound N#CC1CCN(c2ccc3c(c2)CCN(c2nc4c(c(NC5(CO)CCC5)n2)[S+]([O-])CC4)C3)C1 (centres unmarked) [Compound 159] is ____.
9.65

Try this compound next: [O-][S+]1CCc2nc(N3CCc4cc(N5CC6CC6C5)ccc4C3)nc(NC3(CO)CCC3)c21 (centres unmarked)
9.61

Now consider [O-][S+]1CCc2nc(N3CCc4cc(N5CC6COCC6C5)ccc4C3)nc(NC3(CO)CCC3)c21 (centres unmarked) .
9.86

Also check C[C@H]1c2ccc(N3CCCC3)cc2CCN1c1nc2c(c(NC3(CO)COC3)n1)[S+]([O-])CC2 (some centres unmarked)
9.93

// repeat for CO[C@@H]1CCN(c2ccc3c(c2)CCN(c2nc4c(c(NC5(CO)CCC5)n2)[S+]([O-])CC4)C3)C1 (some centres unmarked) and report
9.37

Check [O-][S+]1CCc2nc(N3CCc4cc(N5CCC[C@H]5CO)ccc4C3)nc(NC3(CO)CCC3)c21 (some centres unmarked) too.
9.43

Let us now turn to O=S1(=O)C[C@H]2C[C@@H]1CN2c1ccc2c(c1)CCN(c1nc3c(c(NC4(CO)CCC4)n1)[S+]([O-])CC3)C2 (some centres unmarked)
9.77

How about this compound: Cn1cc(CNc2nc(N3CCc4cc(Cl)ccc4C3)nc3c2[S+]([O-])CC3)cn1 (centres unmarked)
9.08

Try this compound too: [O-][S+]1CCc2nc(N3CCc4cc(N5CCC(F)C5)ccc4C3)nc(NC3(CO)CCC3)c21 (centres unmarked)
9.37

====

# SUBJECT OF TEST: Flpin-293-PDE4B2 cells (Homo sapiens, UniProt Q07343)
# ASSAY PROTOCOL: cell-based
# CONDITIONS USED: read-out: Cell Inhibition % @100 nM, 100 nM, Flpin-293-PDE4B2 cells
Form field: inhibition at 0.1 µM (one value per entry).
# value in %; strip the unit string

Consider the reported inhibition at 0.1 µM for these compounds:
> print(dat)
                                   compound  recorded.measurement
1  [O-][S+]1CCc2nc(N3CCc4cc(N5CCCC5)cc(F)c4C3)nc(NC3(CO)CCC3)c21 (stereo not shown)                    98
2  C[C@H]1c2ccc(N3CCCC3)cc2CCN1c1nc2c(c(Nc3cnn(C4CN(C)C4)c3)n1)[S+]([O-])CC2 (stereo partly shown)                  61.7
3  C[C@H]1c2ccc(N3CCCC3)cc2CCN1c1nc2c(c(NC3(CO)CCOC3)n1)[S+]([O-])CC2 (stereo partly shown)                  98.4
4  [O-][S+]1CCc2nc(N3CC[C@@H]4c5cccc(Cl)c5OC[C@H]4C3)nc(NC3(CO)CCC3)c21 (stereo partly shown)                  98.1
5  C[C@H]1Cc2cc(Cl)ccc2CN1c1nc2c(c(NC3(CO)CCC3)n1)[S+]([O-])CC2 (stereo partly shown)                  96.8

Reported inhibition at 0.1 µM for [O-][S+]1CCc2nc(N3CCc4cc(F)c(F)cc4C3)nc(NC3(CO)CCC3)c21 (stereo not shown) : what is it?
66.7

Here is the next compound: [O-][S+]1CCc2nc(N3CCc4cc(N5CCCC5)ccc4C3)nc(NCCO)c21 (stereo not shown)
97.7

====

# SUBJECT OF TEST: PDE4B2 (Homo sapiens)
# Sequence (Q07343 1-564 isoform Q07343-2, species assumed): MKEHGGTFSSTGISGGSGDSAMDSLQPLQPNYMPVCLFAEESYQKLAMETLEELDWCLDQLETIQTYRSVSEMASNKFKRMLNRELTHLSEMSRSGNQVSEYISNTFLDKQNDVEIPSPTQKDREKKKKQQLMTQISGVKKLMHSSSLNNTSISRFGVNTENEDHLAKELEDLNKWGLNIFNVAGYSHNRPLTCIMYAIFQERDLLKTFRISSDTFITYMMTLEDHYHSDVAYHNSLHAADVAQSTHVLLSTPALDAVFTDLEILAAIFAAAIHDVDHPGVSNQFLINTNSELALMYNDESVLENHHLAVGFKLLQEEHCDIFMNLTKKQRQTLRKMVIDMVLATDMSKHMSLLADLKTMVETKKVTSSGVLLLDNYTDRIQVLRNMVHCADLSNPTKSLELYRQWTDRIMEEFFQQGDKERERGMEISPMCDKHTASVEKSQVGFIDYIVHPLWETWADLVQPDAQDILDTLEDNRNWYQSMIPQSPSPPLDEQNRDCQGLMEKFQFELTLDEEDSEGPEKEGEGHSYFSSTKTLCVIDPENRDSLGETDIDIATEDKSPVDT
# CONDITIONS USED: read-out: PDE4B2 IC50; enzyme assay
REPORTED ENDPOINT: IC50
Your reply should be a number followed by the unit it is expressed in.

Worked examples, 2 molecules total:
> print(dat)
                                   molecule  recorded.measurement
1  O=S1(=O)CCC(Nc2nc(N3CCc4cc(N5CCCC5)ccc4C3)nc3c2[S+]([O-])CC3)CC1 (stereo not drawn)               0.45 nM
2  [O-][S+]1CCc2nc(N3CCc4cc(N5CCCC5C(F)(F)F)ccc4C3)nc(NC3(CO)CCC3)c21 (stereo not drawn)              0.273 nM

Turning now to a further record.
GET /values?readout=IC50&item= CN(C)C1CCN(c2ccc3c(c2)CCN(c2nc4c(c(NC5(CO)CCC5)n2)[S+]([O-])CC4)C3)C1 (stereo not drawn)
0.7 nM

====

Item-by-item account of inhibition at 0.01 µM
# SUBJECT OF TEST: Flpin-293-PDE4B2 cells (Homo sapiens, UniProt Q07343)
# ASSAY PROTOCOL: cell-based
# CONDITIONS USED: read-out: Cell Inhibition % @10 nM, 10 nM, Flpin-293-PDE4B2 cells
Write the value in % as a bare number.

Example cases with answers are listed next.
> print(dat)
                                   compound  recorded.measurement
1  [O-][S+]1CCc2nc(N3CCc4cc(N5CCCC5)cc(F)c4C3)nc(NC3(CO)CCC3)c21 (stereo not shown)                  40.6
2  [O-][S+]1CCc2nc(N3CCc4cc(N5CCC(F)C5)ccc4C3)nc(NC3(CO)CCC3)c21 (stereo not shown)                  38.3
3  CC(C)(O)[C@@H]1CCN(c2ccc3c(c2)CCN(c2nc4c(c(NC5(CO)CCC5)n2)[S+]([O-])CC4)C3)C1 (stereo partly shown)                  65.7
4  [O-][S+]1CCc2nc(N3CCc4cc(N5CC[C@@H](F)C5)ccc4C3)nc(NC3(CO)CCC3)c21 (stereo partly shown)                  49.6
5  Nc1nc2cc(Cl)ccc2c2c1CN(c1nc3c(c(NC4(CO)CCC4)n1)[S+]([O-])CC3)CC2 (stereo not shown)                  35.9
6  [O-][S+]1CCc2nc(N3CCc4cc(N5CCCC5)ccc4C3)nc(NC3(CO)CCC3)c21 (stereo not shown)                  43.7

Continue with the next compound.
What value of measured inhibition at 0.01 µM is listed for C[C@H]1c2ccc(N3CCCC3)cc2CCN1c1nc2c(c(NC3(CO)CCOC3)n1)[S+]([O-])CC2 (stereo partly shown) ?
50.1
